Hello, the source for this data is ChEMBL document CHEMBL3507680, in case you need it.

Assay: Human HepG2 cell viability assay in 384 well format
Assay type: toxicity, cell-based
Set-up: dose 125 nL, time 70.5 hour; concentration not given beside the values
Settings: HepG2 cells, read-out: Inhibition
Would you mind telling me the reported cytotoxicity at 70.5 h of each entry?
Report the figure in % without appending any unit label.

For Cc1cc(C(=O)N2CCNC(c3ccccc3)C2)c2ccc(F)cc2n1 (centres undefined) , what is its reported cytotoxicity at 70.5 h?
-4.04

Entry COc1ccccc1COCC(O)CN1CCC(c2ccn[nH]2)CC1 (centres undefined) has what cytotoxicity at 70.5 h?
-8.12

// returns reported cytotoxicity at 70.5 h for input NC(=O)c1ccc(C(=O)N2CCCC(n3ccnc3)C2)s1 (centres undefined)
-2.91

Field request: cytotoxicity at 70.5 h | item: Cn1c(Cn2cccn2)nnc1C1CCN(Cc2cccnc2N)CC1
-0.251

Could you tell me which cytotoxicity at 70.5 h is on file for O=S(=O)(C1CC1)N1CC[C@]2(C[C@@H](Oc3ncccc3F)CO2)C1 ?
6.64

What measured cytotoxicity at 70.5 h goes with CC(C)(C)OC(=O)N1CCCc2ccc(NCc3cc[nH]c3)cc21 ?
-9.07

What does the record list as cytotoxicity at 70.5 h for CC(CNC(=O)N1CCN(CC(F)F)CC1)Cc1cccs1 (centres undefined) ?
1.43

Form field: reported cytotoxicity at 70.5 h of c1ccc(OCCN2CCc3c(ncn3C3CC3)C2)cc1
-4.85

# cytotoxicity at 70.5 h lookup, item COc1ccc(-c2cc(C(=O)Nc3nc[nH]n3)[nH]n2)cc1
-12.1

Which value of cytotoxicity at 70.5 h has been reported for COc1ccc(-c2noc(Cn3cnc(C)c3)n2)c(OC)c1OC in the records?
-0.844

# get_value(readout='cytotoxicity at 70.5 h', item= CCOCc1nnc(NCc2ccsc2)o1 )
-3.37

Data request, read-out cytotoxicity at 70.5 h, for O=C(C1SCCc2sccc21)N1CCCCC1 (centres undefined)
-6.95

Bench note: what cytotoxicity at 70.5 h did O=C(CC1C=CCC1)N1CCc2ncnc(NCc3ccon3)c2CC1 (centres undefined) show?
23.6

// query cytotoxicity at 70.5 h value for entry Cc1noc(C)c1CN1CC2(CCN(C(=O)c3cscn3)CC2)CC1=O
-10.1

// returns reported cytotoxicity at 70.5 h for input Cc1ccc(N2CCC(NC(C)c3cccs3)CC2)nc1 (centres undefined)
-2.5

Entry under review: CCCN1CCN(C(=O)c2ccc3nc(C)oc3c2)[C@H]2CS(=O)(=O)C[C@H]21 . Reported cytotoxicity at 70.5 h?
-7.59

Could you share which cytotoxicity at 70.5 h value was measured for COCCNC(=O)[C@@H]1CN(Cc2sccc2C)C[C@H]2OCC[C@H]21 ?
-2.35

Data request, read-out cytotoxicity at 70.5 h, for Cc1cnn(CCC(=O)N2CCN(c3nc(C)cs3)CC2)c1
30.3

Need cytotoxicity at 70.5 h, item c1csc(CN2CCOCC3(CCN(C4CCOCC4)C3)C2)n1 (centres undefined)
0.591

Query: cytotoxicity at 70.5 h; subject: CCc1cnc(CN(C)C(=O)NC2CCN(c3ccccc3)C2)s1 (centres undefined)
-0.551

Query (compound): CN1CCCN(C[C@@H]2CN(C(=O)N3CCOCC3)C[C@@H]2CO)CC1 ; field requested: cytotoxicity at 70.5 h
-3.11

Which measured cytotoxicity at 70.5 h value corresponds to O=C(CCN1CCCC1c1cccc(F)c1)N1CCc2sccc2C1 (centres undefined) ?
0.336

Consider the compound shown here: COCc1nc(C(=O)N2CCCC(n3cccn3)C2)cs1 (centres undefined) What is its recorded cytotoxicity at 70.5 h?
-13.4

I'd like to know its cytotoxicity at 70.5 h. The compound in question is O=C(CNC(=O)c1ccccc1I)NCc1ccccc1F
-10.2

====

Assignment: determine reported cytotoxicity at 70.5 h for the given molecules.
Assay: Human HepG2 cell viability assay in 384 well format
Format: toxicity, cell-based
Set-up: dose 125 nL, time 70.5 hour; concentration not given beside the values
Settings: HepG2 cells, read-out: Inhibition
Give your result in % as a bare value.

Returns the measured cytotoxicity at 70.5 h for the input molecule. Input: COc1c(Br)cc(Cl)cc1NCc1c(C)noc1C
11.5

Any idea what its cytotoxicity at 70.5 h is? The molecule is CN1CCCC(CCC(=O)NCCc2nnc(N)s2)C1 (configuration not stated)
9.25

Entry O[C@@H]1C[C@H]2CN(CC3CCCCC3)[C@H](Cc3ccccc3)CN2C1 : reported cytotoxicity at 70.5 h = ?
24.4

What value of cytotoxicity at 70.5 h has been recorded for this entry: COCc1nc(C(=O)N2CCCC2c2cccc(C)c2)cs1 (configuration not stated)
-8.14

Query (molecule): Cc1cc(Oc2ccccc2F)nc(C2CCCCN2)n1 (configuration not stated) ; field requested: cytotoxicity at 70.5 h
-6.21

Please look up its cytotoxicity at 70.5 h: CCn1ncc2c1CCCC2NCc1cccc2c1OCO2 (configuration not stated)
15.8

Entry O=C1[C@H]2CN(S(=O)(=O)c3cccs3)C[C@H]2CN1CC1CC1 has what cytotoxicity at 70.5 h?
-2.27

What value of cytotoxicity at 70.5 h has been reported for the following molecule? CCN(CC1CCOC1)C(=O)CSCC(=O)Nc1ccc(C)cc1 (configuration not stated)
-2.49

// cytotoxicity at 70.5 h lookup, key: COc1ccnc(N2CCc3ccc(OC(F)F)cc3C2)n1
-2.84

Value lookup for cytotoxicity at 70.5 h; key = O=C(NC1CC1)N1CCc2ncnc(-c3ccncc3)c2CC1
18.5

# query: cytotoxicity at 70.5 h of entry Cc1cc(C)n(C2=NC(NCCC(C)C)c3c(sc4c3CCCC4)N2)n1 (configuration not stated)
1.07

Could you tell me which cytotoxicity at 70.5 h is on file for COc1ccc(S(=O)(=O)N2CCOC[C@H](Oc3cnccn3)C2)cc1 ?
-0.146

====

Test: Human HepG2 cell viability assay in 384 well format
Type: toxicity, cell-based
Set-up: dose 125 nL, time 70.5 hour; concentration not given beside the values
Settings: HepG2 cells, read-out: Inhibition
Please respond with reported cytotoxicity at 70.5 h for every item in the list.
Just the number please, in %, no unit attached.

Could you tell me which cytotoxicity at 70.5 h is on file for COc1cncc(N2CCN(Cc3ccco3)CC2)n1 ?
-12.1

Any idea what cytotoxicity at 70.5 h was measured for Cn1c(N2CCOCC2)nc2cc(C(=O)NCc3cccnc3)ccc21 ?
-9.04

Query: cytotoxicity at 70.5 h; subject: Cc1nn(C)c(C)c1NC(=O)CN1CCc2c(nc(C(C)C)n2C)C1
-10.5

Form field: reported cytotoxicity at 70.5 h of Cc1cccc(S(=O)(=O)N2CCC3(CC2)CC(N(C)C)CO3)c1 (centres undefined)
-10.7

For the molecule Oc1ccccc1CN1CCC(n2cc(-c3ccc(F)cc3)nn2)CC1 , what cytotoxicity at 70.5 h is on record?
-4

Could you share which cytotoxicity at 70.5 h value was measured for COCc1nc(C(=O)N2CCN(Cc3ccsc3)CC2)cs1 ?
-0.448

Which measured cytotoxicity at 70.5 h value corresponds to CN1CCCN(Cn2nc(-c3ccccc3F)ccc2=O)CC1 ?
-5.91

Fill in: cytotoxicity at 70.5 h of CC(C)(C)n1ncc2c1NC(=O)CC2c1cccc(F)c1 (centres undefined) is ___
3.13

What measured cytotoxicity at 70.5 h goes with COc1ccc(CCn2cnnc2[S+](C)[O-])cc1 (centres undefined) ?
-10

Could you tell me which cytotoxicity at 70.5 h is on file for CC(NC(=O)c1ccoc1)C(=O)N(C)Cc1ccc(O)cc1 (centres undefined) ?
3.58

cytotoxicity at 70.5 h lookup needed for CC(C)NC(=O)c1nc(Cn2c(C(F)F)nc3ccccc32)no1 , thanks.
-15.2

What does the data say about its cytotoxicity at 70.5 h? Entry: CC(C)c1ccc(C(C)NC(=O)N2CCC(n3cncn3)CC2)cc1 (centres undefined)
-13.4

Given the molecule CC(=O)N1CCc2c(nc(N(C)C)nc2NCCCn2ccnc2C)C1 , what is its reported cytotoxicity at 70.5 h?
-4.2

cytotoxicity at 70.5 h lookup needed for c1cc(CN2CCCC3(COCCN(Cc4c[nH]nn4)C3)C2)cs1 (centres undefined) , thanks.
-2.64

Can you look up the measured cytotoxicity at 70.5 h of O=C1NCCCCC1Sc1ccccc1F (centres undefined) for me?
-11.2

Give its cytotoxicity at 70.5 h value. Item: O=C(C[C@@H]1COC[C@H]2CN(C3CCOCC3)C[C@@H]12)Nc1cnccn1
76.4

Could you tell me which cytotoxicity at 70.5 h is on file for CCNC(=O)C1CCCN(C(=O)Nc2ccc3c(c2)CCCN3C)C1 (centres undefined) ?
-9.82

Given CC(C)NC(=O)N1CCc2ncc(CN3CCOCC3)n2CC1 , state its recorded cytotoxicity at 70.5 h.
-1.87

Field request: cytotoxicity at 70.5 h | item: COCCc1noc(CN2CC(n3nc(C)cc3C)C2)n1
4.95

I have this molecule here, CN(CC1(O)CCCN(Cc2cccc(F)c2F)C1=O)C1CCCCC1 (centres undefined) , and I need its recorded cytotoxicity at 70.5 h.
-0.975

Item CN(C)C1CCN(C(=O)c2cc(-c3ccn(C)n3)n3ccccc23)CC1 has what recorded cytotoxicity at 70.5 h?
-6.13

Param item = CS(=O)(=O)N[C@H]1CN(C(=O)CCc2ccco2)C[C@@H]1C1CC1 ; retrieve measured cytotoxicity at 70.5 h.
19.3

Data request, read-out cytotoxicity at 70.5 h, for Cc1cnn(CC2CCCCN2Cc2ncc(C(C)(C)C)o2)c1 (centres undefined)
-7.03

State the recorded cytotoxicity at 70.5 h for this entry: C[C@@H]1CN(CCc2ccccc2)C[C@]12CCN(CC(=O)N(C)C)C2=O
-12.6
